Test system: a variety of test species
Assay: Pre-emergence herbicidal activity (Example 8a, Table 2)
Format: in vivo
Set-up: key: 0 = no damage to plant, 5 = total damage to plant
Conditions: SETFA; application pre-emergence; rate 1000 g/ha; evaluated after 13 days
Description: Seeds of a variety of test species were sown in standard soil in pots. […] After 13 days, the test was evaluated (5=total damage to plant; 0=no damage to plant).
List of Pre-emergence herbicidal activity, damage score SETFA values.
Metric name: Pre-emergence herbicidal activity, damage score SETFA

> print(dat)
                                   molecule  assay.result
1  COC1=C(C)C(O)N(c2cc(C(C)(C)C)n(C)n2)C1=O (stereo not drawn)             5
2  CC1=C(Br)C(=O)N(c2cc(C(C)(C)C)n(C)n2)C1O (stereo not drawn) [Compound J1]             4
3  CC1=C(Cl)C(=O)N(c2cc(C(C)C)n(C)n2)C1O (stereo not drawn) [Compound B14]             4
4  CC1=C(Br)C(=O)N(c2cc3n(n2)CC[S+]([O-])C3(C)C)C1O (mixture of isomers)             1
5  COC1=C(OC)C(O)N(c2cc3n(n2)CCCC3(C)C)C1=O (stereo not drawn)             5
6  CC(C)=Cc1cc(N2C(=O)C(Cl)=C(C)C2O)nn1C (stereo not drawn) [Compound B7]             4
7  CC1=C(Cl)C(=O)N(c2cc(C(F)(F)F)n(CC(F)(F)F)n2)C1O (stereo not drawn) [Compound C5]             4
8  CCC1CCCn2nc(N3C(=O)C(Cl)=C(C)C3O)cc21 (mixture of isomers) [Compound G5]             4
9  CC1=C(Cl)C(=O)N(c2cc(C(C)C(F)(F)F)n(C)n2)C1O (stereo not drawn)             5
